Test system: estrogen-related receptor alpha (ERRalpha) with PGC-1alpha coactivator, human
Assay: qHTS assay to identify small molecule antagonists of the estrogen related receptor signaling pathway with the pleiotropic PPARgamma coactivator (PGC) (AID 1224821); note: nearly all actives have a fitted effect of over 50% in size; note: potency is the fitted concentration of half-maximal effect
Settings: ERR/PGC reporter cell line, luciferase, antagonist mode; series mostly up to 46.1 µM
Records with an inconclusive call do not appear. Activity calls are given as the source filed them. Calls come from the whole dose curve.
assay.readout: Potency

A selection of reference data follows.
c1ccc(CN2CCC3(CCCc4ccccc43)CC2)cc1: inactive
N[C@@H](Cn1ccc(=O)c(O)c1)C(=O)O: inactive
N#C/C(=C\c1ccc(O)c(O)c1)C(=O)Nc1ccccc1: inactive
CC(C)N(CCC(=O)c1ccc2ccccc2c1)Cc1ccccc1: 19.9 µM (active)
O=C(O)CCC(C(=O)O)N1C(=O)c2ccccc2C1=O (centres undefined): inactive
CC(C)[C@@H]1CC[C@@H](C)C[C@@H]1P(=O)(c1ccccc1)c1ccccc1: inactive
O=Nc1ccc2oc(=O)ccc2c1: inactive
CC#CCOC(=O)c1c(C)nc2sc3c(c2c1N)CCC(O)C3 (centres undefined): inactive

IN: Quick check: Potency on estrogen-related receptor alpha (ERRalpha) with PGC-1alpha coactivator, human, item CC(C)C[C@H](NC(=O)C1OC1C(=O)O)C(=O)NCCCCN=C(N)N (some centres undefined) ?
OUT: inactive

IN: Item: Cc1nc2c(OCc3ccccc3)cccn2c1CC#N Test system: estrogen-related receptor alpha (ERRalpha) with PGC-1alpha coactivator, human Read-out: Potency Value: ?
OUT: inactive

IN: What Potency appears in the records for this compound with estrogen-related receptor alpha (ERRalpha) with PGC-1alpha coactivator, human? COC(=O)C1=C(C)NC(C)=C(C(=O)OC)C1c1cccc(NC(=O)NCCCN2CCC(c3cccc(OC)c3)CC2)c1
OUT: 31 µM (active)

IN: For the record N[C@@H](CCC(=O)N[C@H](CSN=O)C(=O)NCC(=O)O)C(=O)O , what value of Potency is listed for estrogen-related receptor alpha (ERRalpha) with PGC-1alpha coactivator, human?
OUT: inactive

IN: API: value(readout=Potency, system=estrogen-related receptor alpha (ERRalpha) with PGC-1alpha coactivator, human) for record O=C(O)[C@H]1NCCC[C@H]1C(=O)O
OUT: inactive

IN: Notebook entry, estrogen-related receptor alpha (ERRalpha) with PGC-1alpha coactivator, human assay: Potency of Cc1cccc(-c2[nH]ncc2-c2ccc3ncccc3n2)n1 = ?
OUT: 1.44 µM (active)

IN: Given the entry CC(C)(C)NCC(O)COc1cccc2[nH]c(=O)[nH]c12 (centres undefined) , what Potency was observed with estrogen-related receptor alpha (ERRalpha) with PGC-1alpha coactivator, human?
OUT: inactive

IN: For estrogen-related receptor alpha (ERRalpha) with PGC-1alpha coactivator, human, provide Potency of C[C@@H](c1ncncc1F)[C@](O)(Cn1cncn1)c1ccc(F)cc1F please.
OUT: inactive

IN: Field: Potency (estrogen-related receptor alpha (ERRalpha) with PGC-1alpha coactivator, human). Entry: O=C(/C=C/c1ccc(O)cc1)c1ccc(O)cc1O
OUT: inactive

IN: Kindly state the measured Potency obtained for O=C1C2C=CC=CC2=NC(=S)N1CCN1CCC(=C(c2ccc(F)cc2)c2ccc(F)cc2)CC1 (centres undefined) with estrogen-related receptor alpha (ERRalpha) with PGC-1alpha coactivator, human.
OUT: 25.6 µM (active)

IN: Provide the documented Potency with estrogen-related receptor alpha (ERRalpha) with PGC-1alpha coactivator, human as the system for N=C(N)SCCN
OUT: inactive

IN: Quick check: Potency on estrogen-related receptor alpha (ERRalpha) with PGC-1alpha coactivator, human, item Nc1ccc(-c2nc3ccc(-c4nc5ccc(N)cc5[nH]4)cc3[nH]2)cc1 ?
OUT: inactive

IN: Potency of COc1ccc2c(c1)c(CC(=O)O)c(C)n2Cc1ccc(Cl)cc1 on estrogen-related receptor alpha (ERRalpha) with PGC-1alpha coactivator, human?
OUT: inactive

IN: API: value(readout=Potency, system=estrogen-related receptor alpha (ERRalpha) with PGC-1alpha coactivator, human) for record CS(=O)(=O)c1cccc(CNc2nc(Nc3ccc4c(c3)CCC(=O)N4)ncc2C(F)(F)F)c1
OUT: inactive

IN: Find Potency (estrogen-related receptor alpha (ERRalpha) with PGC-1alpha coactivator, human) for the entry OCC1NCC(O)C(O)C1O (centres undefined)
OUT: inactive

IN: Record lookup: for estrogen-related receptor alpha (ERRalpha) with PGC-1alpha coactivator, human, what Potency belongs to O=c1c2ccccc2nc2n1CCc1c-2[nH]c2ccccc12 ?
OUT: inactive
